- EXPERIMENT NOTES: Inhibition of acyl-coA cholesterol O-acyltransferase (unknown origin)
- Set-up: species or system Homo sapiens
PROPERTY: IC50 (µM)

* CCCCCCn1nc(-c2ccccc2)c(-c2ccccc2)cc1=O | 57

* * *

- Tested on: Thoracic aorta
- EXPERIMENT NOTES: Inodilatory activity in Wistar Rattus norvegicus (rat) thoracic aorta assessed as inhibition of phenylephrine-induced contraction
- Assay type: functional, tissue-based
PROPERTY: IC50 (nM)

- CS(=O)(=O)Nc1ccc(C2=NN(c3ccccc3)C(=O)CC2)cc1: 80

* * *

- EXPERIMENT NOTES: Half life in Rattus norvegicus (rat)
- Format: ADME, organism-based
- MEASUREMENT CONTEXT: in vivo
PROPERTY: half-life (h)

* O=C(O)COc1cccc2c1CC[C@H](Cn1nc(C(c3ccccc3)c3ccccc3)ccc1=O)C2 | 4.3
